Target: Amyloid-beta precursor protein (Homo sapiens)
Assay: Inhibition of self-induced amyloid beta (1 to 42) (unknown origin) aggregation at 10 uM after 24 hrs by thioflavin T-based fluorometric assay relative to control
Lab note: anything with inhibition at or over 50% counts as Met; the rest go in Not met.

Look over these answered cases.
>>> group("CCN(C)C(=O)Oc1cccc(CNC(=O)c2cc(O)c(O)c(O)c2)c1")
"Met"
>>> group("CCN(C)C(=O)Oc1cccc(CNC(=O)CCCCC2CCSS2)c1 (stereo unspecified)")
"Met"

Please indicate if the recorded inhibition for CCN(C)C(=O)Oc1cccc(CNC(=O)c2cc(=O)c3ccccc3o2)c1 meets or exceeds 50%.
Met

Record CCN(C)C(=O)Oc1cccc(NC(=O)CCCCC2CCSS2)c1 (stereo unspecified) ; criterion: inhibition no lower than 50%. Met?
Not met

Quick check, inhibition >= 50%? CCN(C)C(=O)Oc1cccc(CCNC(=O)c2cc(=O)c3ccccc3o2)c1
Met

###

Assay: Permeability at 100 ug/ml incubated for 10 hrs by PAMPA method
Format: ADME
Conditions: read-out: Peff
experimental.readout: Papp at 10 h, 100 ug/ml

>>> observed_result("CCN(C)C(=O)Oc1cccc(CNC(=O)CCCCC2CCSS2)c1 (configuration not stated)")
"27.8 ×10⁻⁶ cm/s"
>>> observed_result("CCN(C)C(=O)Oc1cccc(CNC(=O)c2cc(O)c(O)c(O)c2)c1")
"4.86 ×10⁻⁶ cm/s"
>>> observed_result("CCN(C)C(=O)Oc1cccc(NC(=O)c2cc(O)c(O)c(O)c2)c1")
"3.08 ×10⁻⁶ cm/s"
>>> observed_result("CCN(C)C(=O)Oc1cccc(NC(=O)CCCCC2CCSS2)c1 (configuration not stated)")
"10.3 ×10⁻⁶ cm/s"
>>> observed_result("CCN(C)C(=O)Oc1cccc(CCNC(=O)c2cc(O)c(O)c(O)c2)c1")
"5.14 ×10⁻⁶ cm/s"
>>> observed_result("CCN(C)C(=O)Oc1cccc(CCNC(=O)CCCCC2CCSS2)c1 (configuration not stated)")
"12.1 ×10⁻⁶ cm/s"

Now examine the next entry.
The molecule identified as CCN(C)C(=O)Oc1cccc([C@H](C)N(C)C)c1 registered its Papp at 10 h, 100 ug/ml at 16.3 ×10⁻⁶ cm/s

###

Experiment: Inhibition of AChE (unknown origin) at 500 nM pre-incubated for 20 mins before acetylthiocholine iodide substrate addition by Ellman reagent based spectrophotometry
Conditions: Homo sapiens
Here the recorded inhibition is given for each entry.
Number in %, nothing else.

Examples from the recorded data:
>>> observed_result("CCN(C)C(=O)Oc1cccc(CCNC(=O)CCCCC2CCSS2)c1 (stereo not given)")
-1.48
>>> observed_result("CCN(C)C(=O)Oc1cccc(CCNC(=O)c2cc(O)c(O)c(O)c2)c1")
3.48
>>> observed_result("CCN(C)C(=O)Oc1cccc(NC(=O)CCCCC2CCSS2)c1 (stereo not given)")
0.51
>>> observed_result("CCN(C)C(=O)Oc1cccc(CNC(=O)c2cc(=O)c3ccccc3o2)c1")
12.7
>>> observed_result("CCN(C)C(=O)Oc1cccc(CCNC(=O)c2cc(=O)c3ccccc3o2)c1")
22.1
>>> observed_result("CCN(C)C(=O)Oc1cccc(NC(=O)c2cc(O)c(O)c(O)c2)c1")
23.6

GET /value?item= CCN(C)C(=O)Oc1cccc(CNC(=O)CCCCC2CCSS2)c1 (stereo not given) &field=inhibition returns 3.66

What the record says about CCN(C)C(=O)Oc1cccc(CNC(=O)c2cc(O)c(O)c(O)c2)c1 : inhibition is 5.53

Sure, the documented inhibition for CCN(C)C(=O)Oc1cccc(NC(=O)c2cc(=O)c3ccccc3o2)c1 is 9.03

So for CCN(C)C(=O)Oc1cccc([C@H](C)N(C)C)c1 [RIVASTIGMINE] , the logged inhibition turned out to be 1.92
